Biological target: human PPARδ (hPPARδ) (Homo sapiens)
Construct: δ:aa 139-C-end; expressed in transfected cells
Sequence (Q03181 139-441 limits assumed): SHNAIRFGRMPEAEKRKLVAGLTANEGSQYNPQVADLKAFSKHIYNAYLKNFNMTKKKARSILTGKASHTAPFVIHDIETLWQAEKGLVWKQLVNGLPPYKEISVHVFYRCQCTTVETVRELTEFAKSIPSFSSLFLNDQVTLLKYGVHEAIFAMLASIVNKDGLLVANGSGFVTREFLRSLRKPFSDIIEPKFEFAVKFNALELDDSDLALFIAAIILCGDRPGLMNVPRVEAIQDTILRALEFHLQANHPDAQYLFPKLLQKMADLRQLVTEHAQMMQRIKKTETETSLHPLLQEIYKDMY
Test: Test for transcriptional activity of PPARδ (GAL4 chimeric transcription-factor reporter assay in CHO cells)
Format: cell-based
Details: GAL4-hPPARδ LBD chimeric reporter in CHO cells, 24 hours; concentration showing 1/2 of maximum luciferase activity (Table 166)
TEST READOUT: EC50 (nM)

1. Cc1cc(SCc2noc(-c3ccc(C(F)(F)F)cc3)c2C)ccc1OCC(=O)O [β-1-3] ... 9.9
2. Cc1cc(SCc2noc(-c3ccc(C(F)(F)F)cc3)c2C)ccc1Cc1noc(=O)[nH]1 [α-7-3-1] ... 9.5
3. Cc1c(CSc2ccc(-c3sccc3C(=O)O)cc2)noc1-c1ccc(C(F)(F)F)cc1 [β-5-1] ... 14

(A) Cc1cc(SCc2noc(-c3ccc(Cl)cc3)c2C)ccc1OCC(=O)O [β-1-8]
(B) Cc1c(CSc2ccc3c(ccn3CC(=O)O)c2)noc1-c1ccc(C(F)(F)F)cc1 [β-4-1]
(C) COCc1c(CSc2ccc(OCC(=O)O)c(C)c2)noc1-c1ccc(C(F)(F)F)cc1 [β-1-15]
Q) Order these by EC50, descending, and give the full ranking. // ordering of labels required in reply
A) B, A, C
